- test-system: Motilin receptor (Homo sapiens)
- Sequence (O43193 whole entry): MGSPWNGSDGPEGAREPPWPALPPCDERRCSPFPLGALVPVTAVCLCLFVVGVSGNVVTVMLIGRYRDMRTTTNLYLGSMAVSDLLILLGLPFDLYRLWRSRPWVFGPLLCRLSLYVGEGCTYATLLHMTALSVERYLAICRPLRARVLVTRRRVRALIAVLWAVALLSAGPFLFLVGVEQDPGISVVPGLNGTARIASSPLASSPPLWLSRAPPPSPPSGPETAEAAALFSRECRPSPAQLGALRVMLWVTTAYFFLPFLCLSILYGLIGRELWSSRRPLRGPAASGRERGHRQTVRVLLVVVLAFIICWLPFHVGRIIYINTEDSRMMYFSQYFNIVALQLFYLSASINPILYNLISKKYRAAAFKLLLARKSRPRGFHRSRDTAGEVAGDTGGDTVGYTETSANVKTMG
- measurement-description: SUPPLEMENTARY: Agonist activity at human recombinant motilin receptor expressed in CHO cells by calcium mobilization-based FLIPR assay. Same assay as CHEMBL942680
property: log10 of EC50 (log10 of the value in nM)
# values: log10(EC50), units nM

// field: log10 of EC50; key: C[C@H]1CN(Cc2ccc(-c3cccnc3C(=O)N3CCC(Nc4ccc(F)cc4)CC3)cc2)CCN1 ; value = 0.00

// field: log10 of EC50; key: Cc1nc(-c2ccc(F)cc2)ccc1C(=O)N(C)c1ccc(CN2C[C@@H](C)N[C@@H](C)C2)cc1 ; value = -0.40

// field: log10 of EC50; key: C[C@H]1CN(Cc2ccc(N(C)C(=O)c3ccc(-c4cccc(C#N)c4)cn3)cc2)CCN1 ; value = 1.60

// field: log10 of EC50; key: C[C@H]1CN(Cc2ccc(N(C)C(=O)c3ccc(-c4cccc(F)c4)nc3)c(F)c2)CCN1 ; value = 0.80

// field: log10 of EC50; key: C[C@@H]1CN(Cc2ccc(CC(=O)N3CCC(Oc4ccc(C#N)cc4)CC3)cc2)CCN1 ; value = 1.10

// field: log10 of EC50; key: C[C@@H]1CN(Cc2ccc(C(C)(C)C(=O)N3CCC(Nc4cccc(F)c4)CC3)cc2)C[C@H](C)N1 ; value = 1.40

// field: log10 of EC50; key: Cc1cc(NS(=O)(=O)c2cncc(-c3ccc(F)cc3)c2)ccc1CN1CCN[C@@H](C)C1 ; value = 1.30

// field: log10 of EC50; key: C[C@H]1CN(Cc2ccc(CC(=O)N3CCC(Nc4ccc(F)c(F)c4)CC3)cc2)CCN1 ; value = 0.90

// field: log10 of EC50; key: C[C@H]1CN(Cc2ccc(N(C)C(=O)c3ccc(Oc4cccc(C#N)c4)cn3)cc2)CCN1 ; value = 0.30

---

Reported EC50 values follow for various compounds
- test-system: Motilin receptor (Homo sapiens)
- measurement-description: SUPPLEMENTARY: Agonist activity at human recombinant motilin receptor expressed in CHO cells by calcium mobilization-based FLIPR assay. Same assay as CHEMBL942680
Give the number; nM is assumed, so skip it.

// field: EC50; key: C[C@H]1CN(Cc2ccn(-c3cccnc3N3CCC(Oc4cccc(F)c4)CC3)n2)CCN1 ; value = 0.794

// field: EC50; key: CC(C)N(C(=O)c1ccc(-c2cccc(F)c2)nc1)c1ccc(CN2CCN[C@@H](C)C2)cc1 ; value = 12.6

// field: EC50; key: Cc1cc(N(C)C(=O)c2ccc(-c3cccc(F)c3)nc2)ccc1CN1CCN[C@@H](C)C1 ; value = 0.251

---

- test-system: Motilin receptor (Homo sapiens)
- measurement-description: SUPPLEMENTARY: Agonist activity at human recombinant motilin receptor expressed in CHO cells by calcium mobilization-based FLIPR assay. Same assay as CHEMBL942680
- Type: functional, cell-based
property: pEC50
Scale explanation: pEC50 corresponds to minus log10 of a concentration expressed in moles per litre.

Known results for compounds:
// field: pEC50; key: C[C@@H]1CN(Cc2ccc(CC(=O)N3CCC(Nc4cccc(C(F)(F)F)c4)CC3)cc2)CCN1 ; value = 8.60

// field: pEC50; key: C[C@H]1CN(Cc2ccc(N(C)C(=O)c3ccc(Oc4ccc(F)cc4)nc3)c(F)c2)CCN1 ; value = 8.50

// field: pEC50; key: C[C@H]1CN(Cc2ccc(NS(=O)(=O)c3ccc(N4CCCCC4)nc3)cc2)CCN1 ; value = 7.00

// field: pEC50; key: C[C@H]1CN(Cc2ccc(CC(=O)N3CCC(Oc4cccc(F)c4)CC3)cc2)CCN1 ; value = 7.60

// field: pEC50; key: Cc1cc(NS(=O)(=O)c2ccc(-c3ccc(F)cc3)nc2)ccc1CN1CCN[C@@H](C)C1 ; value = 8.80

Continuing:
// field: pEC50; key: C[C@H]1CN(Cc2ccc(N(C)C(=O)c3ccc(Oc4cccc(F)c4)cc3)cc2)CCN1 ; value = 8.60

// field: pEC50; key: C[C@H]1CN(Cc2ccc(NS(=O)(=O)c3ccc(-c4ccc(F)cc4)nc3)cc2C(F)(F)F)CCN1 ; value = 8.80

// field: pEC50; key: C[C@@H]1CN(Cc2ccn(-c3cccnc3N3CCC(Oc4ccccc4F)CC3)n2)C[C@H](C)N1 ; value = 8.20

// field: pEC50; key: C[C@@H]1CN(Cc2ccc(CC(=O)N3CCC(Nc4cccc(C#N)c4)CC3)cc2)CCN1 ; value = 8.50

// field: pEC50; key: C[C@H]1CN(Cc2ccc(CC(=O)N3CCC(Nc4cccc(C(F)(F)F)c4)CC3)cc2)CCN1 ; value = 8.20

// field: pEC50; key: C[C@H]1CN(Cc2ccc(N(C)C(=O)c3ccc(Oc4ccccc4F)cc3)cc2)CCN1 ; value = 8.30

// field: pEC50; key: C[C@@H]1CN(Cc2ccc(CCC(=O)N3CCC(Nc4cccc(F)c4)CC3)cc2)C[C@H](C)N1 ; value = 7.40

// field: pEC50; key: C[C@H]1CN(Cc2ccc(N(C)C(=O)c3ccc(Oc4ccccc4F)nc3)cc2)CCN1 ; value = 8.10
